experimental target: T1, HLA-A*02:01 (human)
T1 construct: captured on streptavidin plates, detected with anti-β2m; also called peptide-receptive MHC molecules; MHC class I
procedure details: UV-ligand exchange + anti-β2m ELISA; exchange yield grade: ≥10% +, ≥20% ++, ≥50 +++, ≥75% ++++
The entries below come with measured peptide exchange yield values attached.
test readout: peptide exchange yield

> print(dat)
                                     binder     result
1  LMASEGIWESSL (also called LMASEGIWESSL) [altORF-039]  50 to 75%
2  ALLDAEQSPVAL (also called ALLDAEQSPVAL) [altORF-014]      ≥ 75%
3  KIIEDLANTV (also called KIIEDLANTV) [KRT18-001]      ≥ 75%
4  MVQQEKLFV (also called MVQQEKLFV) [altORF-053]  50 to 75%
5  LVWEVVESV (also called LVWEVVESV) [altORF-003]      ≥ 75%
6  YVLMTSLLL (also called YVLMTSLLL) [altORF-055]      ≥ 75%
7  MLLPWLPKL (also called MLLPWLPKL) [altORF-017]      ≥ 75%
8  SLSAWLPSL (also called SLSAWLPSL) [altORF-036]      ≥ 75%

Reference for the values: patent US20230241113A1
